Give MIC for every item shown.
# Test system: Proteus vulgaris
# Assay Details: Antimicrobial activity against Proteus vulgaris ATCC 3851
# Format: functional

// lookup MIC | system=Proteus vulgaris | key= CC1(C)S[C@@H]2[C@H](NC(=O)[C@H](N)c3ccccc3)C(=O)N2[C@H]1C(=O)O [AMPICILLIN]
0.39 µg/mL

Request: CC1(C)CCC[C@]2(C)[C@H]3CC/C(=C\OS(=O)(=O)[O-])[C@H](CCc4ccoc4)[C@@]3(C)CC[C@@H]12.[Na+] [SUVANINE'S SODIUM SALT]
25 µg/mL

Request: CO[C@H]1C=C(CC[C@H]2/C(=C/OS(=O)(=O)[O-])CC[C@H]3[C@]2(C)CC[C@H]2C(C)(C)CCC[C@]32C)C(=O)O1.[Na+]
> 100 µg/mL

Request: CC1(C)CCC[C@]2(C)[C@H]3CC/C(=C\OS(=O)(=O)[O-])[C@H](CCC4=CC(=O)O[C@@H]4O)[C@@]3(C)CC[C@@H]12.[Na+]
> 100 µg/mL

Request: CO[C@H]1C=C(CC[C@H]2/C(=C/OS(=O)(=O)[O-])CC[C@H]3[C@]2(C)CC[C@H]2C(C)(C)CCC[C@]32C)[C@@H](OC)O1.[Na+]
> 100 µg/mL

Request: CO[C@@H]1C=C(CC[C@H]2/C(=C/OS(=O)(=O)[O-])CC[C@H]3[C@]2(C)CC[C@H]2C(C)(C)CCC[C@]32C)C(=O)O1.[Na+]
> 100 µg/mL

---

# System: Micrococcus luteus
# Assay Details: Antimicrobial activity against Micrococcus luteus IFO 12708
# Assay type: functional
Measured Endpoint: MIC

For CC1=CC[C@H]2C(C)(C)CCC[C@]2(C)[C@H]1C/C=C(\C)CCC/C(C)=C/Cc1cc(O)ccc1O , what is its reported MIC?
> 100 µg/mL

Request: CC1(C)CCC[C@]2(C)[C@H]3CC/C(=C\OS(=O)(=O)[O-])[C@H](CCc4ccoc4)[C@@]3(C)CC[C@@H]12.[Na+] [SUVANINE'S SODIUM SALT]
25 µg/mL

Request: CC1(C)CCC[C@]2(C)[C@H]3CC/C(=C\OS(=O)(=O)[O-])[C@H](CCc4ccoc4)[C@@]3(C)CC[C@@H]12.C[N+](C)=C(N)N
> 100 µg/mL

---

# Test Target: Sodium/potassium-transporting ATPase
# Assay Details: Inhibition of human Na(+)/K(+) ATPase assessed as reduction in ouabain-sensitive and K(+)-dependent cleavage of fluorescent pseudosubstrate 3-O-methylfluorescein phosphate by fluorometric method
Give IC50 for every item shown.
Numbers only here, please. The scale is µM.

For CC1(C)CCC[C@]2(C)[C@H]3CC/C(=C\OS(=O)(=O)[O-])[C@H](CCC4=CC(=O)O[C@@H]4O)[C@@]3(C)CC[C@@H]12.[Na+] , what is its reported IC50?
5

Request: CO[C@@H]1O[C@H](OC)[C@](O)(CC[C@H]2/C(=C/OS(=O)(=O)[O-])CC[C@H]3[C@]2(C)CC[C@H]2C(C)(C)CCC[C@]32C)[C@H]1O.[Na+]
6

Request: CC1(C)CCC[C@]2(C)[C@H]3CC/C(=C\OS(=O)(=O)[O-])[C@H](CCC4=CCNC4=O)[C@@]3(C)CC[C@@H]12.[Na+]
18

---

# Test Target: Sodium/potassium-transporting ATPase
# Assay Details: Inhibition of human Na(+)/K(+) ATPase assessed as reduction in ouabain-sensitive and K(+)-dependent cleavage of fluorescent pseudosubstrate 3-O-methylfluorescein phosphate by fluorometric method
# Assay type: protein-complex assay
Categorized via IC50: group A = under 5 µM, group B = from 5 µM up to 20 µM, group C = 20 µM and over

Form field 'band' for C=C1CC[C@H]2C(C)(C)CCC[C@]2(C)[C@H]1C[C@@H](OS(=O)(=O)[O-])[C@H](C)CCC/C(C)=C/Cc1cc(O)ccc1O.[Na+]
group A

Request: CC1(C)CCC[C@]2(C)[C@H]3CC/C(=C\OS(=O)(=O)[O-])[C@H](CCc4ccoc4)[C@@]3(C)CC[C@@H]12.[Na+] [SUVANINE'S SODIUM SALT]
group B

Request: CC1(C)CCC[C@]2(C)[C@H]3CC/C(=C\OS(=O)(=O)[O-])[C@H](CCc4ccoc4)[C@@]3(C)CC[C@@H]12.C[N+](C)=C(N)N
group B

Request: CO[C@H]1C=C(CC[C@H]2/C(=C/OS(=O)(=O)[O-])CC[C@H]3[C@]2(C)CC[C@H]2C(C)(C)CCC[C@]32C)C(=O)O1.[Na+]
group B

Request: CO[C@H]1C=C(CC[C@H]2/C(=C/OS(=O)(=O)[O-])CC[C@H]3[C@]2(C)CC[C@H]2C(C)(C)CCC[C@]32C)[C@@H](OC)O1.[Na+]
group B

Request: CC1(C)CCC[C@]2(C)[C@H]3CC/C(=C\OS(=O)(=O)[O-])[C@H](CCC4=CC(=O)OC4)[C@@]3(C)CC[C@@H]12.[Na+]
group B

Request: CC1=CC[C@H]2C(C)(C)CCC[C@]2(C)[C@H]1C/C=C(/C)CCC/C(C)=C/Cc1cc(O)ccc1O
group C

Request: CC1=CC[C@H]2C(C)(C)CCC[C@]2(C)[C@H]1C[C@@H](OS(=O)(=O)[O-])[C@H](C)CCC/C(C)=C/Cc1cc(O)ccc1O.[Na+] [HALISULFATE 1]
group A

Request: CO[C@@H]1C=C(CC[C@H]2/C(=C/OS(=O)(=O)[O-])CC[C@H]3[C@]2(C)CC[C@H]2C(C)(C)CCC[C@]32C)C(=O)O1.[Na+]
group B

Request: CC1=CC[C@H]2C(C)(C)CCC[C@]2(C)[C@H]1C/C=C(\C)CCC/C(C)=C/Cc1cc(O)ccc1O
group C

---

# Test Target: Sortase A (Staphylococcus aureus)
# Sequence (Q9S446 whole entry): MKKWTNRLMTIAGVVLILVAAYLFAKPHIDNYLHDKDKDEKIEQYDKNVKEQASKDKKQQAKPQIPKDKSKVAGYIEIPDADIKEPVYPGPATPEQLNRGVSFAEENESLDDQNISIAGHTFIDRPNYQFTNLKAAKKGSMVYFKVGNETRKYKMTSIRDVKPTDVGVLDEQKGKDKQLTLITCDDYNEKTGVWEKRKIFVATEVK
# Assay Details: Inhibition of recombinant Staphylococcus aureus ATCC 6538p sortase lacking the N-terminal membrane anchor domain expressed in Escherichia coli cells TOP10 using Dabcyl-QALPETGEE-Edans substrate measured after 1 hr by fluorescence S13 spectrophotometry
pIC50: −log10 of the molar value.
Measured Endpoint: pIC50

// lookup pIC50 | system=Sortase A (Staphylococcus aureus) | key= CC1(C)CCC[C@]2(C)[C@H]3CC/C(=C\OS(=O)(=O)[O-])[C@H](CCC4=CCNC4=O)[C@@]3(C)CC[C@@H]12.[Na+]
< 3.70

Request: CC1(C)CCC[C@]2(C)[C@H]3CC/C(=C\OS(=O)(=O)[O-])[C@H](CCC4=CC(=O)O[C@@H]4O)[C@@]3(C)CC[C@@H]12.[Na+]
< 3.70

Request: CC1(C)CCC[C@]2(C)[C@H]3CC/C(=C\OS(=O)(=O)[O-])[C@H](CCc4ccoc4)[C@@]3(C)CC[C@@H]12.[Na+] [SUVANINE'S SODIUM SALT]
< 3.70

Request: CC1=CC[C@H]2C(C)(C)CCC[C@]2(C)[C@H]1C/C=C(/C)CCC/C(C)=C/Cc1cc(O)ccc1O
< 3.70

Request: CC1(C)CCC[C@]2(C)[C@H]3CC/C(=C\OS(=O)(=O)[O-])[C@H](CCC4=CC(=O)OC4)[C@@]3(C)CC[C@@H]12.[Na+]
< 3.70

Request: CC1=CC[C@H]2C(C)(C)CCC[C@]2(C)[C@H]1C/C=C(\C)CCC/C(C)=C/Cc1cc(O)ccc1O
< 3.70

Request: CO[C@@H]1C=C(CC[C@H]2/C(=C/OS(=O)(=O)[O-])CC[C@H]3[C@]2(C)CC[C@H]2C(C)(C)CCC[C@]32C)C(=O)O1.[Na+]
< 3.70

Request: CC1=CC[C@H]2C(C)(C)CCC[C@]2(C)[C@H]1C[C@@H](OS(=O)(=O)[O-])[C@H](C)CCC/C(C)=C/Cc1cc(O)ccc1O.[Na+] [HALISULFATE 1]
4.44

Request: CO[C@@H]1O[C@H](OC)[C@](O)(CC[C@H]2/C(=C/OS(=O)(=O)[O-])CC[C@H]3[C@]2(C)CC[C@H]2C(C)(C)CCC[C@]32C)[C@H]1O.[Na+]
< 3.70

Request: CO[C@H]1C=C(CC[C@H]2/C(=C/OS(=O)(=O)[O-])CC[C@H]3[C@]2(C)CC[C@H]2C(C)(C)CCC[C@]32C)[C@@H](OC)O1.[Na+]
< 3.70

Request: CC1=CC[C@H]2C(C)(C)CCC[C@]2(C)[C@H]1C[C@@H](OS(=O)(=O)[O-])[C@H](C)CCC/C(C)=C\Cc1cc(O)ccc1O.[Na+]
4.00

Request: CO[C@H]1C=C(CC[C@H]2/C(=C/OS(=O)(=O)[O-])CC[C@H]3[C@]2(C)CC[C@H]2C(C)(C)CCC[C@]32C)C(=O)O1.[Na+]
< 3.70
